Biological target: Tyrosine-protein kinase Lck (Homo sapiens, UniProt P06239)
Sequence (P06239 whole entry): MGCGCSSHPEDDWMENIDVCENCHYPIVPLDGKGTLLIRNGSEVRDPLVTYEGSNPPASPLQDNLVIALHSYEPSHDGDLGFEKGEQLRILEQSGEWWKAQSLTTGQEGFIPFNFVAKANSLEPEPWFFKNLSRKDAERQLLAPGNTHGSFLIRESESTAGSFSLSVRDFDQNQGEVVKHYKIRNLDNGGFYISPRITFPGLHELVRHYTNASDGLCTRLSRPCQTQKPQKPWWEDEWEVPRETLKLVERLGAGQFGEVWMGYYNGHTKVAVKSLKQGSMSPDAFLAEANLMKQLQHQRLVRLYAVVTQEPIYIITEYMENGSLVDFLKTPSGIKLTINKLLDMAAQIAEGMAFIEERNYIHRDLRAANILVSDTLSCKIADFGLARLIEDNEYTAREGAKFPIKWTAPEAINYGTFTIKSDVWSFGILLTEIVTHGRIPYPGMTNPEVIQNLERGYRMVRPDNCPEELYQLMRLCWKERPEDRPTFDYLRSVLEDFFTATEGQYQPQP
readout.label: IC50

Q: Retrieve IC50 measured for N#CCCN(CCC#N)CCCN(CCCN(CCC#N)CCC#N)CCCN(CCCN(CCCN(CCC#N)CCC#N)CCCN(CCC#N)CCC#N)CCN1C(=O)c2cccc3cccc(c23)C1=O and print it.
Result: > 50 µM

* * *

Test system: HT-29
Assay: Cytotoxic effect on human colon carcinoma HT-29 cell line
Type: functional
Details: read-out: ID50 (the source's name)
Answer each item with its documented pIC50.
Numbers only, as −log10 of the molar value.

The cases that follow already have their pIC50 on record.
# compound, value.measured
measured = [
    ("N#CCCN(CCC#N)CCCN(CCCN(CCC#N)CCC#N)CCCN(CCCN(CCCN(CCC#N)CCC#N)CCCN(CCC#N)CCC#N)CCN1C(=O)C(c2ccccc2)=C(c2ccccc2)C1=O", 4.24),
    ("NCCCN(CCCN)CCCN(CCCN(CCCN)CCCN)CCCN(CCCN(CCCN(CCCN)CCCN)CCCN(CCCN)CCCN)CCN1C(=O)c2cccc3cccc(c23)C1=O", 4.36),
    ("O=C1c2cccc3cccc(c23)C(=O)N1CCNCCCNCCN1C(=O)c2cccc3cccc(c23)C1=O [ELINAFIDE]", 7.85),
    ("CN(C)CCN1C(=O)c2cccc3cc(N)cc(c23)C1=O [AMONAFIDE]", 4.42),
]

Q: // output pIC50; input NCCCN(CCCN)CCCN(CCCN(CCCN)CCCN)CCCN(CCCN(CCCN(CCCN)CCCN)CCCN(CCCN)CCCN)CCN1C(=O)C(c2ccccc2)=C(c2ccccc2)C1=O ; system HT-29
Result: 4.00
